system: CAKI-1 renal; assay: NCI-60 one-dose screen, 48 h (100 = growth as untreated, 0 = no growth, -100 = all killed); conditions: 10 µM unless noted
This is part of a sample that, as a whole, favours compounds with a hit. Of some 83,000 tested, about 20% had one in any assay. Calls of active or inactive are those of the source. How the source made its calls: active means growth percent below 10; inactive means the rest.
# reported growth; entries follow

MOLECULE | growth
O=C(O)C#Cc1ccc(Cl)cc1 | 95.4% (inactive)
NCCCCCC(=O)O | 94% (inactive) [middle of 4 runs]
NCCSSC/C=C\CSSCCN | 101% (inactive)
CN(C=O)c1ccccc1 | 88.2% (inactive)
COc1ccc(CCO)cc1 | 102% (inactive)
Cc1cnc(N)s1 | 96.9% (inactive)
CN(C)CC(CN(C)C)C(O)c1ccccc1 (configuration not stated) | 98.2% (inactive)
COC(=O)CCOc1ccccc1 | 86.3% (inactive)
CC(O)CCNC(c1ccccc1)C(O)c1ccccc1 (configuration not stated) | 104% (inactive)
COc1cc(Cl)ccc1C | 54.7% (inactive)
O=C(O)c1ccc2c3ccc(C(=O)O)c4c(C(=O)O)ccc(c5ccc(C(=O)O)c1c25)c43 | 80% (inactive)
COC(=O)c1cc(C(=O)OC)cc([N+](=O)[O-])c1 | 109% (inactive)
COc1ccc2nccc(Cl)c2c1 | 97.3% (inactive)
OCc1ccccc1F | 18.7% (inactive)
COc1ccc(/C=N/NC(N)=S)cc1 | 93.3% (inactive)
COC(=O)c1ccccc1Cl | 99.6% (inactive)
C/C=C/C(=O)OCCCCCCCCCCCC | 101% (inactive)
CC1=CC(=O)c2cccc(NC3=NCCO3)c21 | 94.2% (inactive)
Cn1c(N)c(N=O)c(=O)n(C)c1=O | 102% (inactive)
CCCCNC(=O)c1ccccc1C | 96.5% (inactive)
N=c1sc2ccccc2n1CC(=O)O | 97.8% (inactive)
Cc1cc2ccccc2c2cc3ccccc3cc12 | 88.8% (inactive)
CN(C)C(=S)N(C)C | 98.6% (inactive)
CC(=O)Oc1cc(C)c(OC(C)=O)c(C)c1C | 77.4% (inactive)
NNc1ncnc2cccc(Cl)c12 | 107% (inactive)
Clc1ccc2sc(-c3ccccc3)nc2c1 | 90.7% (inactive)
COc1ccc(COC=O)cc1 | 102% (inactive)

Each recorded value in this set is attributed to PubChem BioAssay (NCI).
